Each recorded value in this set is attributed to patent US20220106398A1.

system: T1, human His6-GITR (human, UniProt Q9Y5U5 26-162)
T1 construct: His6-tagged recombinant protein; also called hGITR-His; human GITR-His
T1 sequence: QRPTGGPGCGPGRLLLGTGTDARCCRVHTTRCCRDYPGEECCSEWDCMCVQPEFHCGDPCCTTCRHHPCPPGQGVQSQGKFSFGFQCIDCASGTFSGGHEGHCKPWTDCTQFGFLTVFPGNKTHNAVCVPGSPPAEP
assay.method.text: ELISA, scFv periplasmic extract on coated His6-GITR
Entries and their measured hGITR-His/BKG follow.

binder	hGITR-His/BKG [fold over background]
GITR-Mab-3 scFv (scFv, V domains shown, scFv in periplasmic extract, V5 tag) VH: QVQLVQSGAEVKKPGASVKVSCKASGYTFTSYDINWVRQAPGQGLEWMGWISGYNGNTNYAQKFQGRVTMTRDTSTSTVYMELSSLRSEDTAVYYCARSHEYYYYYGMDVWGQGTLVTVSS VL: EIVMTQSPATLSVSPGERATLSCRASQSVSSSYLAWYQQKPGQAPRLLIYGASTRATGIPARFSGSGSGTEFTLTISSLQSEDFAVYYCQQYYTTPFTFGPGTKVDIK	12.1
GITR-Mab-28 scFv (scFv, V domains shown, scFv in periplasmic extract, V5 tag) VH: QVQLVQSGAEVKKPGASVKVSCKASGYTFPNYGITWVRQAPGQGLEWMGWMNPNSGYTGYAQNFQGRVTMTRDTSTSTVYMELSSLRSEDTAVYYCARGMPGRGFDPWGQGTLVTVSS VL: EIVMTQSPATLSVSPGERATLSCRASQSVSSNYLAWYQQKPGQAPRLLIYGASTRATGIPARFSGSGSGTEFTLTISSLQSEDFAVYYCQQYHTYPPTFGQGTKLEIK	11.5
GITR-Mab-34 scFv (scFv, V domains shown, scFv in periplasmic extract, V5 tag) VH: EVQLLESGGGLVQPGGSLRLSCAASGFTFSSYWMHWVRQAPGKGLEWVSVISNSGGATYYADSVKGRFTISRDNSKNTLYLQMNSLRAEDTAVYYCAREGWGYGMDVWGQGTTVTVSS VL: DIQMTQSPSSLSASVGDRVTITCRASQDIRNYLAWYQQKPGKAPKLLIYTASTLQSGVPSRFSGSGSGTDFTLTISSLQPEDFATYYCQQTFRTPLTFGGGTKVEIK	7.7
